Target: Androgen receptor (Homo sapiens)
Sequence (P10275 whole entry): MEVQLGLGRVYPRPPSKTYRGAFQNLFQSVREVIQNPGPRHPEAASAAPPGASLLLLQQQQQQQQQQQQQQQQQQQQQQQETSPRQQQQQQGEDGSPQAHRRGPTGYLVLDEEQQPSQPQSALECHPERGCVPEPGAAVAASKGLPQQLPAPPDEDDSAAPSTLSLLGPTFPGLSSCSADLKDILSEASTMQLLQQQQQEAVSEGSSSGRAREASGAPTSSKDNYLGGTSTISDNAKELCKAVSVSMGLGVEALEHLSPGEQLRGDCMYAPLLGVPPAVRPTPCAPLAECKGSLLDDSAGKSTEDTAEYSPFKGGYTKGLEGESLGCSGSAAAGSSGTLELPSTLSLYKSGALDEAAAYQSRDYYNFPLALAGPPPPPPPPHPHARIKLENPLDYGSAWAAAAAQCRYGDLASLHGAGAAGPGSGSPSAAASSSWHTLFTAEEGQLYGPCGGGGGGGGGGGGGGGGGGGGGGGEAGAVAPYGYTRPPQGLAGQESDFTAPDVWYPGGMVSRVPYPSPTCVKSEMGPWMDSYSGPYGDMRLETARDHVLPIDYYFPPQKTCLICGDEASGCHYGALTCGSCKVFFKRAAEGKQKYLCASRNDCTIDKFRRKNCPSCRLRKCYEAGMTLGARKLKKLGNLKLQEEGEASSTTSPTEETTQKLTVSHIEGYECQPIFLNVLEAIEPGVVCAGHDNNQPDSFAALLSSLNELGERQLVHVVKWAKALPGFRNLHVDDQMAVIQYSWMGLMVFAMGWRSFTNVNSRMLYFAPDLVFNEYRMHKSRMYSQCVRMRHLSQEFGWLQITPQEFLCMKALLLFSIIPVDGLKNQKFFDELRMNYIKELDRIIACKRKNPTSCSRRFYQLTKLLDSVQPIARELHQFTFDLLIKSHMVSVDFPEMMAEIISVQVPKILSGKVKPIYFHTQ
Assay: Inhibition of androgen dependent human prostate cancer cell […] proliferation
reported.property: log10(IC50) (log10 of the value in nM)
Parameter value (number): base-10 log of IC50 in nM.

Oc1c2c(c(O)n1-c1ccc(Cl)c(Cl)c1)C1C=CC2C1
2.26
CN1C(=O)C2C=CC1c1c2c(O)n(-c2ccc([N+](=O)[O-])c3ccccc23)c1O (stereo not given)
3.93
Oc1c2c(c(O)n1-c1cccc(C(F)(F)F)c1)C1C=CC2CC1
-0.40
Oc1c2c(c(O)n1-c1cccc(C(F)(F)F)c1)C1C=CC2[C@H]2C[C@@H]12
2.17

-- ask Dear colleague, I am looking for the recorded log10(IC50) of the following molecule: Oc1c2c(c(O)n1-c1cccc(C(F)(F)F)c1)C1CCCC2CC1
-- reply 2.25
